- System Under Test: T1, c-erbB-2 ECD with a Ser-Gly-His6 C-terminal fusion (UniProt P04626 23-652)
- T1 construct: extracellular domain; Expressed from CHO cells, IMAC purified; coupled to a CM5 chip, coated on plates, or biotinylated with NHS-LC-biotin; also called c-erbB-2 extracellular domain; biotinylated c-erbB-2 ECD
- Assay Name: SPR BIAcore

Binder | Kd (mutant)/Kd (C6.5)
C6.5C100S/C100eS (scFv, C6.5 VH CDR3 scan mutant; Kabat numbering) scFv: QVQLLQSGAELKKPGESLKISCKGSGYSFTSYWIAWVRQMPGKGLEYMGLIYPGDSDTKYSPSFQGQVTISVDKSVSTAYLQWSSLKPSDSAVYFCARHDVGYSSSSNSAKWPEYFQHWGQGTLVTVSSGGGGSGGGGSGGGGSQSVLTQPPSVSAAPGQKVTISCSGSSSNIGNNYVSWYQQLPGTAPKLLIYGHTNRPAGVPDRFSGSKSGTSASLAISGFRSEDEADYYCAAWDDSLSGWVFGGGTKLTVLG | 17.5
C6.5S100bA (scFv, C6.5 VH CDR3 scan mutant; Kabat numbering) scFv: QVQLLQSGAELKKPGESLKISCKGSGYSFTSYWIAWVRQMPGKGLEYMGLIYPGDSDTKYSPSFQGQVTISVDKSVSTAYLQWSSLKPSDSAVYFCARHDVGYCSASNCAKWPEYFQHWGQGTLVTVSSGGGGSGGGGSGGGGSQSVLTQPPSVSAAPGQKVTISCSGSSSNIGNNYVSWYQQLPGTAPKLLIYGHTNRPAGVPDRFSGSKSGTSASLAISGFRSEDEADYYCAAWDDSLSGWVFGGGTKLTVLG | 2.9
C6.5H102A (scFv, C6.5 VH CDR3 scan mutant; Kabat numbering) scFv: QVQLLQSGAELKKPGESLKISCKGSGYSFTSYWIAWVRQMPGKGLEYMGLIYPGDSDTKYSPSFQGQVTISVDKSVSTAYLQWSSLKPSDSAVYFCARHDVGYCSSSNCAKWPEYFQAWGQGTLVTVSSGGGGSGGGGSGGGGSQSVLTQPPSVSAAPGQKVTISCSGSSSNIGNNYVSWYQQLPGTAPKLLIYGHTNRPAGVPDRFSGSKSGTSASLAISGFRSEDEADYYCAAWDDSLSGWVFGGGTKLTVLG | 1.2
C6.5S100cA (scFv, C6.5 VH CDR3 scan mutant; Kabat numbering) scFv: QVQLLQSGAELKKPGESLKISCKGSGYSFTSYWIAWVRQMPGKGLEYMGLIYPGDSDTKYSPSFQGQVTISVDKSVSTAYLQWSSLKPSDSAVYFCARHDVGYCSSANCAKWPEYFQHWGQGTLVTVSSGGGGSGGGGSGGGGSQSVLTQPPSVSAAPGQKVTISCSGSSSNIGNNYVSWYQQLPGTAPKLLIYGHTNRPAGVPDRFSGSKSGTSASLAISGFRSEDEADYYCAAWDDSLSGWVFGGGTKLTVLG | 1.5
C6.5D96A (scFv, C6.5 VH CDR3 scan mutant; Kabat numbering) scFv: QVQLLQSGAELKKPGESLKISCKGSGYSFTSYWIAWVRQMPGKGLEYMGLIYPGDSDTKYSPSFQGQVTISVDKSVSTAYLQWSSLKPSDSAVYFCARHAVGYCSSSNCAKWPEYFQHWGQGTLVTVSSGGGGSGGGGSGGGGSQSVLTQPPSVSAAPGQKVTISCSGSSSNIGNNYVSWYQQLPGTAPKLLIYGHTNRPAGVPDRFSGSKSGTSASLAISGFRSEDEADYYCAAWDDSLSGWVFGGGTKLTVLG | 2.8
